The following substances are shown together with reported Percent AlPI Eluted by Fraction, 1M NaCl values.
target: A1PI (Homo sapiens, UniProt P01009)
Construct: Human plasma is currently the only approved source of therapeutic AlPI
Sequence (P01009 25-418): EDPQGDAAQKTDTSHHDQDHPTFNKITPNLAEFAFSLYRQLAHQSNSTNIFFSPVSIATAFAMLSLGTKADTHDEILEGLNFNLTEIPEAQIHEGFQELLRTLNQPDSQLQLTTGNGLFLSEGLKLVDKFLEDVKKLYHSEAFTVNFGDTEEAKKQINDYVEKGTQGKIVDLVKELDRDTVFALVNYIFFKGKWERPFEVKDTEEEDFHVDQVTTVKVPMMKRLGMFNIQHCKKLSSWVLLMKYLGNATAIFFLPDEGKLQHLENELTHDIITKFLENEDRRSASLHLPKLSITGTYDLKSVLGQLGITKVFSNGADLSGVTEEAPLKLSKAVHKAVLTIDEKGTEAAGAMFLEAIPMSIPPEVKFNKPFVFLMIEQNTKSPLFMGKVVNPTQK
testDetails: A1PI binding on peptide-resin column, injection of 1 mg A1PI in equilibration buffer
assayConditions: sequence order; 1 mg AlPI, 4° C.
Ends that are not written are not given here.
Supply the numeric figure in %, leaving out any unit text.

Consider the worked cases shown below.
>  <substance>
VIFLVR

>  <valueMeasured>
3

$$$$
>  <substance>
RVLFIV: reversed sequence of VIFLVR

>  <valueMeasured>
27

$$$$
>  <substance>
RVLFIH: reversed sequence of VIFLVR with C-terminal His

>  <valueMeasured>
29

$$$$

Continue with the substance presented below.
Qu. Requested field: Percent AlPI Eluted by Fraction, 1M NaCl. Item: Ac-RVLFIV: N-terminal acetylated Ac-RVLFIV (listed under SEQ ID No:61)
Ans. 11
